assay: in vitro; details: human, TOX HELA CC50 (μM)
result.type: CC50 at 3 days (µM)
Numeric answer only, unit µM assumed.

Example molecules with recorded CC50 at 3 days:
> print(dat)
                                   molecule  result.unit  endpoint.value
1  C[C@@H]1c2ccsc2CCN1C(=O)c1cc(C2CC2)n2nc(-c3ccc(N4CC[C@H](CC(N)=O)C4)cc3F)cc2n1 (single isomer, unassigned)           µM            28.9
2  C[C@@H]1c2ccccc2CCN1C(=O)c1cc(C2CC2)n2nc(-c3ccc(N4C[C@H](O)C(F)(F)C4)cc3F)cc2n1           µM            26.1

Shift focus to the following entry.
// query Sample C[C@@H]1c2ccccc2CCN1C(=O)c1cc(C2CC2)n2nc(-c3ccc(N4CCCC(CC(N)=O)C4)cc3F)cc2n1 (stereo partly drawn) — what was its CC50 at 3 days?
// result 29.8

###

assay: in vitro; conditions: human, TOX HELA CC50 (μM)
The entries below are paired with their reported CC50 at 3 days.
Entry rule: numbers only, all in µM.

compound	CC50 at 3 days, µM
C[C@@H]1c2ccsc2CCN1C(=O)c1cc(C2CC2)n2nc(-c3ccc(N4CC[C@H](C(C)(C)C(N)=O)C4)cc3F)cc2n1 (single isomer, unassigned) [Compound 29]	43.7
C[C@@H]1c2ccccc2CCN1C(=O)c1cc(C2CC2)n2nc(-c3ccc(N4CC[C@H](C(N)=O)[C@H]4C)cc3F)cc2n1 (single isomer, unassigned) [Compound 81]	38.4
C[C@@H]1c2ccccc2CCN1C(=O)c1cc(C2CC2)n2nc(-c3ccc(N4CC(O)C4)cc3F)cc2n1 [Compound 67]	36.5
C[C@@H]1c2ccccc2CCN1C(=O)c1cc(C2CC2)n2nc(-c3ccc(N4CC[C@H](C(C)(C)C(N)=O)C4)cc3F)cc2n1 (single isomer, unassigned) [Compound 27]	34.4
C[C@@H]1c2ccccc2CCN1C(=O)c1cc(C2CC2)n2nc(-c3ccc(N4CC[C@@](C)(CC(N)=O)C4)cc3F)cc2n1 (single isomer, unassigned) [Compound 24]	26.4

// query Dear colleague, I am looking for the recorded CC50 at 3 days of the following compound: C[C@@H]1c2ccsc2CCN1C(=O)c1cc(C2CC2)n2nc(-c3ccc(N4CC[C@H](C(N)=O)C4)cc3F)cc2n1 (single isomer, unassigned) [Compound 46]
// result 31.3

// query Request the reported CC50 at 3 days associated with C[C@@H]1c2ccccc2CCN1C(=O)c1cc(C2CC2)n2nc(-c3ccc(N4CC[C@@H](c5nnn[nH]5)C4)cc3F)cc2n1 [Compound 2]
// result 38.7

// query CC50 at 3 days for C[C@@H]1c2ccccc2CCN1C(=O)c1cc(C2CC2)n2nc(-c3ccc(N4C[C@@H](O)[C@@H](F)C4)cc3F)cc2n1 (relative stereo) [Compound 107] ?
// result 21.2

// query Quick check: CC50 at 3 days of C[C@@H]1c2ccccc2CCN1C(=O)c1cc(C2CC2)n2nc(-c3ccc(N4C[C@H](C(N)=O)C[C@@H]4C)cc3F)cc2n1 (single isomer, unassigned) [Compound 33] ?
// result 34.5

// query Fill blank: measured CC50 at 3 days of the compound C[C@@H]1c2ccccc2CCN1C(=O)c1cc(C2CC2)n2nc(-c3cnc(N4CC[C@H](C(N)=O)C4)cc3F)cc2n1 [Compound 52] is ____.
// result 41.3

These measurements were taken from patent US11339165B2.
